Biological target: T1, murine GPC3-his protein (Sino Biological, Cat. No. 50989-M08B) (murine, UniProt Q8CFZ4 25-558)
T1 construct: Bought protein; also called murine GPC3 protein
T1 sequence (Q8CFZ4 25-558 limits assumed): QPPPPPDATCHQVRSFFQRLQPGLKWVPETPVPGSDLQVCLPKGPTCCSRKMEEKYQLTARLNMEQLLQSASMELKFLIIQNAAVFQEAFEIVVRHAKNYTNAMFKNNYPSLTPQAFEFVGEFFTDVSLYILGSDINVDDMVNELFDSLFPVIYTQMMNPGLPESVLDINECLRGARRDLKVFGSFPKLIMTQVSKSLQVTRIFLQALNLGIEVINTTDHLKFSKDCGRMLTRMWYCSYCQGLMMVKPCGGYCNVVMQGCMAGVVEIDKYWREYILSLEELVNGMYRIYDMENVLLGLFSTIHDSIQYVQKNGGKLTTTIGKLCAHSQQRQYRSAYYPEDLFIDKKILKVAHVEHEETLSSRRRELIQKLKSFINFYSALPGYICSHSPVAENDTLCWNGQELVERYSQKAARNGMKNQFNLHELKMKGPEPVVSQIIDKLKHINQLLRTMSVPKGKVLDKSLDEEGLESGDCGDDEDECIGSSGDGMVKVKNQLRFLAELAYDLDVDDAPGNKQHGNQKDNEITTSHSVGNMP
Assay: ELISA, coated murine GPC3-His;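 note: antigen coated on plates at 1 µg/mL, test antibody bound for 2 h at 37 °C, detected with HRP-conjugated secondary antibody and TMB substrate after acid stop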
metric: OD450 at 100 nM antibody (OD450 nm)

binder | readout-number
F1.3.9 human-murine chimeric antibody (antibody, human IgG1, kappa, V domains shown) VH: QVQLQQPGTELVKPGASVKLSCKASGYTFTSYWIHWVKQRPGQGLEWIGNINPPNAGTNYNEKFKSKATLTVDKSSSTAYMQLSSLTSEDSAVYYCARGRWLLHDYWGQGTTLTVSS VL: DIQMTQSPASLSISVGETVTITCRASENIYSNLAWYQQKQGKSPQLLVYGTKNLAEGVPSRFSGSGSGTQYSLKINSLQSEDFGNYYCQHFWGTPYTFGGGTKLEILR | 0.37
F2.55.11 human-murine chimeric antibody (antibody, human IgG1, kappa, V domains shown) VH: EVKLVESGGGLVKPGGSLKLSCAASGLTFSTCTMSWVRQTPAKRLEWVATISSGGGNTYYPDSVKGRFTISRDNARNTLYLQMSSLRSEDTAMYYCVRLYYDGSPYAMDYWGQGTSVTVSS VL: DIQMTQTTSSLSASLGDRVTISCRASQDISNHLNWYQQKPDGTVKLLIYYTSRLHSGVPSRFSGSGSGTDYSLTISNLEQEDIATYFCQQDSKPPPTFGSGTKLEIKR | 0.16
F1.153.1 human-murine chimeric antibody (antibody, human IgG1, kappa, V domains shown) VH: QIQLVQSGPELKKPGETVKISCKASGYTFTTAGMQWVQKMPGKGFKWIGWINTHSGEPQYAEDFKGRFAFSLETSASTAYLQISNLKNEDTATYFCARSFYYHGSSFFYFDYWGQGTTLTVSS VL: DIVMTQSQKFMSTTVGDRVSITCKASQNVGTAVAWYQQKPGQSPKLLIYSASNRYTGVPDRFTGSGSGADFTLTISNMQSEDLADYFCQQYSRYPLTFGAGTKLELKR | 0.09
F2.92.1 human-murine chimeric antibody (antibody, human IgG1, kappa, V domains shown) VH: QVQLQQSGAELVRPGASVKLSCKASGYIFSDYEIHWVKQTPVHGLECIGAVDPETGGTAYNQKFKGKATLTADKSSSTAYMELRSLTSEDSAVYFCTRFYSFAYWGQGTLVTVST VL: DVVMTQTPLSLPVSLGDQGSISCRSSQSLVHSNGNTYLQWYLQKPGQSPKLLIYKVSNRFSGVPDRFSGSGSGTDFTLKISRVEAEDLGVYFCCQSTHVLPTFGGGTKLEIKR | 0.07
F1.42.8 human-murine chimeric antibody (antibody, human IgG1, kappa, V domains shown) VH: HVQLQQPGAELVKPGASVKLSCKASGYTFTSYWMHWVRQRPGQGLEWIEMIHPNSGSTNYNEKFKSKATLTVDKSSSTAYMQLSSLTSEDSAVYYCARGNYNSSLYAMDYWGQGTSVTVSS VL: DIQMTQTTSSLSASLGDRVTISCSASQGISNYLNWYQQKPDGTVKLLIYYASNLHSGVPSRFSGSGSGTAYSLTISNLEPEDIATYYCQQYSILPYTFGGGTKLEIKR | 2.75
F3.38.7 human-murine chimeric antibody (antibody, human IgG1, kappa, V domains shown) VH: QVQLQQSGAELVRPGASVKLSCKASGYTFTDYEIHWVKQTPVLGLEWIGAIDPKTGNTAYNQKFMGKATLTADKSSTTAYMDLRSLTSEDSAVYYCTRYFSFAYWGQGTLVTVSA VL: DVLMTQTPLSLPVSLGDQASISCRSSQTFVHSNGNTYLQWYLQKPGQSPKLLIYKVSNRFSGVPDRFSGSGSGTDFTLKISRVEAEDLGVYYCFQGSHVPYTFGSGTKLEIKR | 0.12
F2.23.8 human-murine chimeric antibody (antibody, human IgG1, kappa, V domains shown) VH: QVQLQQSGAELVRPGASVKLSCKASGYTFTDYEMHWVKQTPVHGLEWFGAIDPETGGTAYNQKFRAKATLTADKSSSTAYMELRSLTSEDSAVYYCTRFYSFAYWGQGTLVTVSA VL: DVVMTQTPLSLPVSLGDQASISCRSSQSLVHSNGNTYLQWYLQKPGQSPKLLIYKVSNRFSGVPDRFSGSGSGTDFTLKITRVEAEDLGVYFCSQSTHVPYTFGSGTKLEIKR | 0.06
F4.26.1 human-murine chimeric antibody (antibody, human IgG1, kappa, V domains shown) VH: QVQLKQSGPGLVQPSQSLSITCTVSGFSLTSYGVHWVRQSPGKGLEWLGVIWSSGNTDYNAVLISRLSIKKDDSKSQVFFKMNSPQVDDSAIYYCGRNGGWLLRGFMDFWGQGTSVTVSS VL: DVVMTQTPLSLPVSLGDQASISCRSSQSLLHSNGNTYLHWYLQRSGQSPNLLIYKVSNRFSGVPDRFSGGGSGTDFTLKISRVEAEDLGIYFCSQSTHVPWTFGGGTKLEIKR | 0.68

# credit: patent US20260116991A1
